# target of assay: GLP-1 receptor (UniProt P43220 24-463, limits assumed)
# assay details: cell-based or functional assay
No end group written: not given here.
Property: Relative Potency (%); scope: individual binders
Dear colleague, please send the value followed by its unit.

| binder | assay readout | observed result |
| --- | --- | --- |
| HSQGTFTSDYSKYLDSRRAQDFVQWLMDGGPSSGAPPPS-NH2 [MDGG30 PSSGAPPPS (SEQ ID NO: 525)] | Relative Potency (%) | 19% |

Now examine the next entry.
**Query** I would be grateful if you could share the reported Relative Potency (%) for HSQGTFTSDYSKYLDSRRAQDFVQWLMNGGPSSGAPPPS-NH2 [MNGG30 PSSGAPPPS (SEQ ID NO: 522)] .
**Result** 8%

Values from patent US20120172295A1
